- System: CP256
- Run Description: qHTS profiling for inhibitors of Plasmodium falciparum proliferation (AID 504749); note: nearly all actives have a fitted effect of over 60% in size
- Run Parameters: P. falciparum in erythrocytes, SYBR Green DNA, 72 h; series mostly up to 28.7 µM
Results filed as inconclusive are left out. Activity calls are given as the source filed them. Calls come from the whole dose curve; as a rule, active = well fitted inhibition curve with a large enough effect; inconclusive = small, poorly fitted or top-dose-only effect; inactive = flat fitted curve, though single readings scatter.
Classes used: true for active, false for inactive

>>> df
                                    molecule  tested_on  group_label
 0  OC1C(O)C(O)C(O)C(O)C1O (stereo unspecified)      CP256        false
 1                           O=C(O)P(=O)(O)O      CP256        false
 2  CC[C@H](c1ccc(O)cc1)[C@@H](CC)c1ccc(O)cc1      CP256        false
 3  CC(=O)OCC(=O)[C@H]1CC[C@H]2[C@@H]3CCC4=CC(=O)CC[C@]4(C)[C@H]3CC[C@]12C      CP256        false
 4  CC(=O)OC[C@H]1O[C@@H](n2ncc(=O)[nH]c2=O)[C@H](OC(C)=O)[C@@H]1OC(C)=O      CP256        false
 5     CN1CCN(C2=Nc3ccccc3Sc3ccc(Cl)cc32)CC1      CP256        false
 6  N/C(=N\N=C\c1ccc(Cl)cc1)N/N=C/c1ccc(Cl)cc1      CP256         true
 7              COc1cc(C)nc(-n2nc(C)cc2OC)n1      CP256        false
 8  CCC(CC)(CC(=O)Nc1cccc(/C=C/c2nc(C3CCC3)cs2)c1)C(=O)O      CP256        false
 9  O[C@@H](c1cc(C(F)(F)F)nc2c(C(F)(F)F)cccc12)[C@H]1CCCCN1      CP256         true
10        CC(C)CCCC(C)N (stereo unspecified)      CP256        false
11  CN1CCN(c2cc3c(cc2F)c(=O)c(C(=O)O)cn3-c2ccc(F)cc2)CC1      CP256        false
12         COc1cc(C(=O)N2CCCCCCC2)cc(OC)c1OC      CP256        false
13          CCN(CC)CCNC(=O)c1cc(Br)c(N)cc1OC      CP256        false
14              O=C(Oc1cccc2cccnc12)c1ccccc1      CP256        false
15  COc1ccc(-c2cc(C(F)F)nn2-c2ccc(S(N)(=O)=O)cc2)cc1F      CP256        false
16  COc1cc(C(=O)NCc2ccc(OCCN(C)C)cc2)cc(OC)c1OC      CP256        false
17                  CC(=O)Nc1ccc(CC(=O)O)cc1      CP256        false
18  O=c1[nH]c(=O)n([C@H]2C[C@H](O)[C@@H](CO)O2)cc1F      CP256        false
19  C[C@@H](O)[C@H]1C(=O)N2C(C(=O)O)=C(S[C@@H]3CN[C@H](CNS(N)(=O)=O)C3)[C@H](C)[C@H]12      CP256        false
20  CN1CCC[C@@H]1CCO[C@](C)(c1ccccc1)c1ccc(Cl)cc1      CP256        false
